System: UO-31 renal
Test: NCI tumour cell line growth inhibition, 48 h
recorded.endpoint: TGI

A selection of reference data follows.
INSERT INTO results (molecule, endpoint_value) VALUES
  ('FC(F)(F)c1ccc2nc(NCc3ccccc3)c(-c3ccccc3)nc2c1', '92.9 µM'),
  ('CCOC(=O)C(NC(=O)CC)(N1CCN(c2cc3c(cc2F)c(=O)c(C(=O)O)cn3C2CC2)CC1)C(F)(F)F (configuration not stated)', '> 100 µM'),
  ('CC1(C)CCc2c(ccc(C(=O)/C=C/c3ccc(O)cc3)c2O)O1', '25.5 µM'),
  ('COC(=O)/C=C/c1cc(OC(C)=O)c2c(c1)C(C(=O)OC)C(c1ccc(OC(C)=O)c(OC(C)=O)c1)O2 (configuration not stated)', '> 72.3 µM'),
  ('CSc1csc(-c2ccc(-c3ccc(-c4cc(SC)cs4)s3)s2)c1', '> 100 µM'),
  ('N#CC(c1ccccc1)N(CCOCCOCCN(C(=O)c1ccccc1)C(C#N)c1ccccc1)C(=O)c1ccccc1 (configuration not stated)', '> 100 µM'),
  ('O=C(c1ccccc1)c1ccc2c(c1)NC(=O)c1ccccc1SSc1ccccc1C(=O)N2', '> 100 µM'),
  ('O=c1cccc(C#CC#C[C@@H]2O[C@H]2CO)o1', '2.88 µM');

q: Dear colleague, I am looking for the recorded TGI of the following molecule: Cc1nc2c(N)ncnc2o1
a: > 100 µM

q: # repeat for CC[C@@H]1NC(C(=O)OC)Cc2c1[nH]c1ccccc21 (some centres not stated)
a: > 100 µM

q: # repeat for C[C@@H]1CC[C@H]2[C@H]1[C@H]1[C@@H](CC[C@]2(C)N=C=S)C1(C)C
a: > 100 µM

q: # repeat for N#CC(I)CS(=O)(=O)c1ccccc1 (configuration not stated)
a: 25.8 µM
